Assay: binders of probe aHhip on microarray, primary screen, stem cell growth factor project, biochemical, small-molecule microarray, fluorescence 635/667 (AID 1087);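 note: score merges spot fluorescence at 667nm with spot signal to noise ratio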
Conditions: higher = more signal
Entries and their composite z-score values follow.

# compound, composite z-score
data = [
    ("N[C@@H](Cc1ccccc1)Cn1cc(C2(O)CCCCC2)nn1", 0.0722),
    ("CC(=O)n1cc(C(O)C2C=CC3C(=O)N(c4ccccc4)C(=O)C3N2Nc2ccccc2F)c2ccccc21 (stereo not given)", 0.0505),
    ("CO[C@H]1O[C@H](CO)[C@@H](OC(=O)Nc2ccc(C(F)(F)F)cc2)[C@H](OC(=O)Nc2ccccc2-c2ccccc2)[C@@H]1OC(=O)Nc1ccccc1-c1ccccc1", -0.146),
    ("COCCOC(=O)N1C(=O)[C@@]2(c3cc(C#CCC(C(=O)OC)C(=O)OC)ccc31)[C@H](C(=O)N1CCCCCCC1)[C@H]1C(=O)O[C@H](c3ccccc3)[C@H](c3ccccc3)N1[C@@H]2c1ccccc1OCCO", 2.72),
    ("COc1ccc(C#Cc2ccc3c(c2)[C@]2(C(=O)N3)[C@H](C(=O)Nc3nc4ccccc4s3)[C@H]3C(=O)O[C@H](c4ccccc4)[C@H](c4ccccc4)N3[C@@H]2c2ccc(OCCO)cc2)cc1", -0.216),
]

----------
Experiment: binders of probe aFSTL3 on microarray, primary screen, stem cell growth factor project, biochemical, small-molecule microarray, fluorescence 635/667 (AID 1064);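 note: measures binding of the biotinylated anti-FSTL3 antibody to printed compounds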
Conditions: higher = more signal
Label f if composite z-score falls below 0.09; label t in every other case.

# molecule, groupLabel
data = [
    ("NCCCC[C@@H]1NC(=O)[C@H]2C[C@@H](C(=O)NCc3ccc(F)cc3)[C@@H](c3cccc(OCCO)c3)N2C1=O", "f"),
    ("C=CC[C@@]1(C(=O)N(C)C)N=C(c2ccc(OCCCO)cc2)O[C@@H]1c1ccccc1", "t"),
    ("C[C@@H](OCc1ccccc1)C1NC(=O)[C@@]23C(=O)N[C@@H](Cc4ccccc4)C2[C@H](C)[C@@]2(C)O[C@H]2C3/C=C/C/C=C\\CNC(=O)[C@H](Cc2ccccc2)NC1=O (stereo partly drawn)", "f"),
    ("CC(=O)NCCCC[C@@H]1NC(=O)[C@H]2C[C@@H](C(=O)NCCCCCC[N+](C)(C)C)[C@@H](c3ccc(O)cc3)N2C1=O", "f"),
    ("[N-]=[N+]=NCc1ccccc1[C@H]1OC(c2ccc(OCCCO)cc2)=N[C@@]1(Cc1ccccc1)C(=O)N1CCOCC1", "f"),
    ("CC(C)C[C@@H]1NC(=O)[C@@H]2C[C@H](C(=O)NCCCC[N+](C)(C)C)[C@H](c3ccc(O)cc3)N2C1=O", "f"),
    ("C=CCC(OC(C)=O)[C@@H]1[C@@H](N(Cc2ccc(-c3cccc(C(F)(F)F)c3)o2)C(=O)c2cccc3ccccc23)c2cc(OCCCO)ccc2N1C(=O)c1ccc2ccccc2c1 (stereo partly drawn)", "t"),
    ("COc1ccc(C#Cc2ccc3c(c2)[C@]2(C(=O)N3)[C@H](c3ccc(OCCO)cc3)N3[C@H](c4ccccc4)[C@H](c4ccccc4)OC(=O)[C@H]3[C@@H]2C(=O)O)cc1", "f"),
    ("COC(=O)[C@@H]1N=C(c2ccc(OCCCO)cc2)O[C@@H]1c1ccccc1CN=[N+]=[N-]", "t"),
    ("CN1C(=O)C2C(C1=O)C1C=C(c3ccc(CO)cc3)C2C(c2cccs2)N1C (stereo not drawn)", "f"),
    ("CCOC(=O)C1=C(C(=O)OCC)N(S(=O)(=O)CC[Si](C)(C)C)[C@H](c2ccccc2)CC1", "t"),
    ("COCCOC(=O)N1C(=O)[C@@]2(c3cc(C#CCC(C(=O)OC)C(=O)OC)ccc31)[C@H](C(=O)N1CCc3cc(OC)c(OC)cc3C1)[C@H]1C(=O)O[C@H](c3ccccc3)[C@H](c3ccccc3)N1[C@@H]2c1ccc(O)cc1", "f"),
    ("O=C1C2C=CC(C(O)c3cccs3)N(Nc3ccccc3)C2C(=O)N1c1ccccc1 (stereo not drawn)", "t"),
    ("O=C1c2ccccc2[C@](Cc2ccccc2I)(C(=O)O)[C@H](c2ccc(CO)cc2)N1Cc1ccccc1", "t"),
    ("C=C(CCCC)C(=O)CC[C@H](OC(C)=O)c1ccccc1OCCO", "f"),
    ("CCOC(=O)C[C@H]1[C@H](OC(=O)c2ccc(-c3ccccc3)cc2)[C@@H](NC(=O)c2ccc3ccccc3c2)c2cc(OCCCO)ccc2N1C(=O)c1ccccc1", "f"),
    ("C=CCNC(=O)[C@@H]1[C@H]2C(=O)O[C@H](c3ccccc3)[C@H](c3ccccc3)N2[C@H](c2ccc(O)cc2)[C@@]12C(=O)Nc1ccc(C#CC3(O)CCCCCC3)cc12", "f"),
    ("COc1ccc(CCNC(=O)[C@@]2(C)c3ccccc3C(=O)N(Cc3cc(C(F)(F)F)cc(C(F)(F)F)c3)[C@H]2c2ccc(CO)cc2)cc1", "t"),
]
